Every entry's value here was drawn from patent US7538220B2.

Below, each of the molecules is paired with its reported KDMPC overall association constant value.
assay: Fluorescence anisotropy titration, equilibrium binding to DMPC small unilamellar vesicles; assay type: physicochemical; conditions: electroneutral DMPC vesicles, PBS pH 7.4, 37° C.; K values subject to 10% uncertainty

{"molecule": "CCC1(O)CC(=O)OCc2c1cc1n(c2=O)Cc2c-1nc1ccc(N)cc1c2[Si](C)(C)C(C)(C)C (racemic)", "unit_spec": "M⁻¹", "KDMPC overall association constant": 8600}
{"molecule": "CCC1(O)CC(=O)OCc2c1cc1n(c2=O)Cc2c-1nc1ccccc1c2[Si](C)(C)C(C)(C)C (racemic)", "unit_spec": "M⁻¹", "KDMPC overall association constant": 14400}
{"molecule": "CCC(O)(CC(=O)O)c1cc2n(c(=O)c1CO)Cc1c-2nc2ccc(O)cc2c1[Si](C)(C)C(C)(C)C (stereo not shown) [DB-91 carboxylate form]", "unit_spec": "M⁻¹", "KDMPC overall association constant": 700}
{"molecule": "CCC1(O)CC(=O)OCc2c1cc1n(c2=O)Cc2c-1nc1ccc(N)cc1c2[Si](C)(C)C (racemic)", "unit_spec": "M⁻¹", "KDMPC overall association constant": 1400}

====

assay: Fluorescence anisotropy titration, equilibrium binding to DMPG small unilamellar vesicles; type: physicochemical; conditions: negatively charged DMPG vesicles, PBS pH 7.4, 37° C.; K values subject to 10% uncertainty
measured_metric: KDMPG overall association constant (M⁻¹)

{"compound": "CCC1(O)CC(=O)OCc2c1cc1n(c2=O)Cc2c-1nc1ccccc1c2[Si](C)(C)C(C)(C)C (racemic)", "measured_metric": "KDMPG overall association constant", "experimental_value": 18500}
{"compound": "CC[C@@]1(O)C(=O)OCc2c1cc1n(c2=O)Cc2cc3ccccc3nc2-1", "measured_metric": "KDMPG overall association constant", "experimental_value": 100}
{"compound": "CCC1(O)CC(=O)OCc2c1cc1n(c2=O)Cc2c-1nc1ccc(O)cc1c2[Si](C)(C)C(C)(C)C (racemic)", "measured_metric": "KDMPG overall association constant", "experimental_value": 4300}
{"compound": "CCC1(O)CC(=O)OCc2c1cc1n(c2=O)Cc2c-1nc1ccc(N)cc1c2[Si](C)(C)C (racemic)", "measured_metric": "KDMPG overall association constant", "experimental_value": 800}

====

test: Fluorescence anisotropy titration, equilibrium binding to DMPG small unilamellar vesicles; type: physicochemical; conditions: negatively charged DMPG vesicles, PBS pH 7.4, 37° C.; K values subject to 10% uncertainty
measured_metric: KDMPG overall association constant

{"molecule": "CCC(O)(CC(=O)O)c1cc2n(c(=O)c1CO)Cc1c-2nc2ccc(O)cc2c1[Si](C)(C)C(C)(C)C (stereo not shown) [DB-91 carboxylate form]", "measured_metric": "KDMPG overall association constant", "experimental_value": "100 M⁻¹"}
{"molecule": "CCC1(O)CC(=O)OCc2c1cc1n(c2=O)Cc2c-1nc1ccc(N)cc1c2[Si](C)(C)C(C)(C)C (racemic)", "measured_metric": "KDMPG overall association constant", "experimental_value": "9300 M⁻¹"}
{"molecule": "CC[C@@]1(O)C(=O)OCc2c1cc1n(c2=O)Cc2cc3c(CN(C)C)c(O)ccc3nc2-1 [Topotecan, reference compound]", "measured_metric": "KDMPG overall association constant", "experimental_value": "50 M⁻¹"}
{"molecule": "CCC(O)(CC(=O)O)c1cc2n(c(=O)c1CO)Cc1c-2nc2ccc(N)cc2c1[Si](C)(C)C(C)(C)C (stereo not shown) [DB-90 carboxylate form]", "measured_metric": "KDMPG overall association constant", "experimental_value": "80 M⁻¹"}

====

test: Fluorescence anisotropy titration, equilibrium binding to DMPC small unilamellar vesicles; format: physicochemical; settings: electroneutral DMPC vesicles, PBS pH 7.4, 37° C.; K values subject to 10% uncertainty
A collection of molecules and their measured KDMPC overall association constant
measured_metric: KDMPC overall association constant (M⁻¹)

{"molecule": "CCc1c2c(nc3ccc(O)cc13)-c1cc3c(c(=O)n1C2)COC(=O)[C@]3(O)CC [SN-38, 7-ethyl-10-hydroxycamptothecin]", "experimental_value": 300}
{"molecule": "CC[C@@]1(O)C(=O)OCc2c1cc1n(c2=O)Cc2cc3ccccc3nc2-1 [Camptothecin]", "experimental_value": 100}
{"molecule": "CCC(O)(CC(=O)O)c1cc2n(c(=O)c1CO)Cc1c-2nc2ccc(N)cc2c1[Si](C)(C)C(C)(C)C (centres unmarked) [DB-90 carboxylate form]", "experimental_value": 770}
{"molecule": "CC[C@@]1(O)C(=O)OCc2c1cc1n(c2=O)Cc2cc3c(CN(C)C)c(O)ccc3nc2-1 [Topotecan, reference compound]", "experimental_value": 10}

====

experiment: Lactone ring stability in whole human blood by HPLC; conditions: whole human blood, 3 hours incubation, pH 7.4, 37° C., 1 μM

{"molecule": "CCC1(O)CC(=O)OCc2c1cc1n(c2=O)Cc2c-1nc1ccc(N)cc1c2[Si](C)(C)C (racemic)", "% Lactone": "56.4 ± 0.6%"}

====

experiment: Lactone ring stability in PBS containing human serum albumin by HPLC; type: in vitro ADME; conditions: PBS with 30 mg/ml HSA, 3 hours, 37° C., 1 μM
Overview of recorded % Lactone for various compounds

{"compound": "CCC1(O)CC(=O)OCc2c1cc1n(c2=O)Cc2c-1nc1ccccc1c2[Si](C)(C)C(C)(C)C (racemic)", "% Lactone, %": 88.1}
{"compound": "CCC1(O)CC(=O)OCc2c1cc1n(c2=O)Cc2c-1nc1ccc(N)cc1c2[Si](C)(C)C(C)(C)C (racemic)", "% Lactone, %": 86.8}
{"compound": "CCC1(O)CC(=O)OCc2c1cc1n(c2=O)Cc2c-1nc1ccc(N)cc1c2[Si](C)(C)C (racemic)", "% Lactone, %": 81.4}
{"compound": "CCC1(O)CC(=O)OCc2c1cc1n(c2=O)Cc2c-1nc1ccc(O)cc1c2[Si](C)(C)C(C)(C)C (racemic)", "% Lactone, %": 82.9}

====

assay: Lactone ring stability in mouse blood by HPLC; details: blood, 3 hours of incubation
Quick rule for you: Ratio of Lactone Level Mouse/Human under 1 gets Condition met, anything else gets Condition not met.

{"compound": "CC[C@@]1(O)C(=O)OCc2c1cc1n(c2=O)Cc2cc3c(N)cccc3nc2-1", "classification": "Condition not met"}
{"compound": "CCC1(O)CC(=O)OCc2c1cc1n(c2=O)Cc2c-1nc1ccc(O)cc1c2[Si](C)(C)C(C)(C)C (racemic)", "classification": "Condition met"}
{"compound": "CCC1(O)CC(=O)OCc2c1cc1n(c2=O)Cc2c-1nc1ccc(N)cc1c2[Si](C)(C)C(C)(C)C (racemic)", "classification": "Condition met"}
{"compound": "CC[C@@]1(O)C(=O)OCc2c1cc1n(c2=O)Cc2cc3ccccc3nc2-1", "classification": "Condition not met"}
{"compound": "CCC1(O)CC(=O)OCc2c1cc1n(c2=O)Cc2c-1nc1ccc(N)cc1c2[Si](C)(C)C (racemic)", "classification": "Condition not met"}
{"compound": "CCC1(O)CC(=O)OCc2c1cc1n(c2=O)Cc2c-1nc1ccccc1c2[Si](C)(C)C(C)(C)C (racemic)", "classification": "Condition met"}

====

This listing pairs compounds with measured % Lactone.
experiment: Lactone ring stability in PBS suspensions of albumin-free red blood cells by HPLC; type: in vitro ADME, human; details: albumin-free RBC in PBS (5±1)×10^6 cell/μL, 3 hours, 37° C.

{"compound": "CCC1(O)CC(=O)OCc2c1cc1n(c2=O)Cc2c-1nc1ccc(O)cc1c2[Si](C)(C)C(C)(C)C (racemic) [DB-91]", "% Lactone / %": 88.5}
{"compound": "CCC1(O)CC(=O)OCc2c1cc1n(c2=O)Cc2c-1nc1ccc(N)cc1c2[Si](C)(C)C (racemic) [DB-38]", "% Lactone / %": 84.8}
{"compound": "CCC1(O)CC(=O)OCc2c1cc1n(c2=O)Cc2c-1nc1ccccc1c2[Si](C)(C)C(C)(C)C (racemic) [DB-81]", "% Lactone / %": 92.0}
{"compound": "CCC1(O)CC(=O)OCc2c1cc1n(c2=O)Cc2c-1nc1ccc(N)cc1c2[Si](C)(C)C(C)(C)C (racemic) [DB-90]", "% Lactone / %": 85.5}

====

assay: Lactone ring stability in PBS containing human serum albumin by HPLC; format: in vitro ADME; conditions: PBS with 30 mg/ml HSA, 24 hours, 37° C., 1 μM
measured_metric: % Lactone

{"compound": "CCC1(O)CC(=O)OCc2c1cc1n(c2=O)Cc2c-1nc1ccc(N)cc1c2[Si](C)(C)C (racemic) [DB-38]", "experimental_value": "34.1 ± 2.2%"}
{"compound": "CCC1(O)CC(=O)OCc2c1cc1n(c2=O)Cc2c-1nc1ccc(N)cc1c2[Si](C)(C)C(C)(C)C (racemic) [DB-90]", "experimental_value": "42.0 ± 2.7%"}
{"compound": "CCC1(O)CC(=O)OCc2c1cc1n(c2=O)Cc2c-1nc1ccccc1c2[Si](C)(C)C(C)(C)C (racemic) [DB-81]", "experimental_value": "42.5 ± 1.6%"}
{"compound": "CCC1(O)CC(=O)OCc2c1cc1n(c2=O)Cc2c-1nc1ccc(O)cc1c2[Si](C)(C)C(C)(C)C (racemic) [DB-91]", "experimental_value": "33.2 ± 3.0%"}
